Exercise: for every item that follows, state its recorded concentration at 2 h.
Assay: Drug concentration in blood and tissues of hamsters administered with multiple doses
Type: in vivo, Golden Syrian Hamsters
Settings: male, Golden Syrian, hamster, liver, oral 10 mg/kg every day for two weeks, two hours after the final administration, read-out: Drug Concentration Liver Tissue
Write the answer as a number in ng/g, unit excluded.

// concentration at 2 h lookup, molecule = CCN(c1ncc(-c2c(C)noc2C)cc1CN1C(=O)O[C@H](c2cc(C(F)(F)F)cc(C(F)(F)F)c2)[C@@H]1C)C1CCCCC1 , result: 415

// concentration at 2 h lookup, molecule = CCN(c1ncc(-c2c(C)noc2C)nc1CN1C(=O)O[C@H](c2cc(C(F)(F)F)cc(C(F)(F)F)c2)[C@@H]1C)C1CCCCC1 , result: 128

Every entry's value here was drawn from patent US9533977B2.
